target: Thyrotropin receptor (Homo sapiens) (UniProt P16473); assay: qHTS assay to identify small molecule antagonists of the thyroid stimulating hormone receptor (TSHR) signaling pathway (AID 1259385); settings: TSHR-HEK293 cAMP HTRF, TSH-stimulated antagonist mode; series mostly up to 92.4 µM; further: nearly all actives have a fitted effect of over 20% in size
Sequence (P16473 whole entry, looked up): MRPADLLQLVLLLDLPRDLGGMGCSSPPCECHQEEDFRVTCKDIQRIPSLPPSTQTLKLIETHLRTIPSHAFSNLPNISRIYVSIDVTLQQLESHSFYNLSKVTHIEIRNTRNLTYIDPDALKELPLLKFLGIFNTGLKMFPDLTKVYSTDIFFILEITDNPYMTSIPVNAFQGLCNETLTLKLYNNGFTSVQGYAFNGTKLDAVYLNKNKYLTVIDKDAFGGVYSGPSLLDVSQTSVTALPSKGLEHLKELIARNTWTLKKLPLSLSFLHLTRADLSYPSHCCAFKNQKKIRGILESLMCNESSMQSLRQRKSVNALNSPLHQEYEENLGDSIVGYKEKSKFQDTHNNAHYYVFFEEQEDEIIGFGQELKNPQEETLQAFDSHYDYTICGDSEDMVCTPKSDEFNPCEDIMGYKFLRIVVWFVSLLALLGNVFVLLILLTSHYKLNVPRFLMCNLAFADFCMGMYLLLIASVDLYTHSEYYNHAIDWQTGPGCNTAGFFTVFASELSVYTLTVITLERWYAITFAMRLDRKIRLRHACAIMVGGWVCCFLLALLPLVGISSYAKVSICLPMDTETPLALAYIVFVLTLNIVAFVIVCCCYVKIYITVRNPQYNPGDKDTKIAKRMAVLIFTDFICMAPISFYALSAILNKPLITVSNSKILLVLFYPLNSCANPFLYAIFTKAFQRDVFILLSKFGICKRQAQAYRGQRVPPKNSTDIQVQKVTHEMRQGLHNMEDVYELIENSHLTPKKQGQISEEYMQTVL
Results filed as inconclusive are left out. Active and inactive are the calls of the source. The call rests on the fitted dose curve.
Classes used: active, inactive

{"columns": ["Chem Smiles", "Class"],
 "data": [
  ["C[C@@]12CCC[C@H]1[C@@H]1CC[C@H]3C[C@@H](O)CC[C@]3(C)[C@H]1CC2", "inactive"],
  ["CCOC(=O)c1ccc(I)cc1", "inactive"],
  ["CS(=O)(=O)c1ccc(-c2cn3ccccc3n2)cc1", "inactive"],
  ["COc1ccccc1N1CCN(CCCCNC(=O)c2ccc(-c3ccc(C(C)=O)cc3)cc2)CC1", "active"],
  ["Cc1ccc2c(Br)cc(Br)c(O)c2n1", "inactive"],
  ["Cc1ccc(CO)cc1", "inactive"],
  ["CCCC(C(=O)OCCN(CC)CC)(c1ccccc1)c1ccccc1", "inactive"],
  ["C[C@@H]1CC(=O)NN=C1c1ccc(NN=C(C#N)C#N)cc1", "inactive"],
  ["Cc1cc(C)c(N)cc1C", "inactive"],
  ["CC(C)=CC(=O)C=C(C)C", "inactive"],
  ["Oc1c(I)cc(I)c2cccnc12", "inactive"]
]}

====

experiment: qHTS assay to identify small molecule antagonists of the thyroid receptor (TR) signaling pathway (AID 743065); details: GH3.TRE-Luc, T3-stimulated luciferase inhibition, 23.5 h; series mostly up to 70.3 µM; further: nearly all actives have a fitted effect of over 55% in size; further: potency means the concentration at half of the fitted maximal effect
Records with an inconclusive call do not appear. Activity calls are given as the source filed them. Calls come from the whole dose curve; as a rule, active = well fitted inhibition curve with a large enough effect in the repeat runs; inconclusive = weak or mixed curves; inactive = no such curve, though single readings can be large or run the other way.

{"columns": ["Compound", "Potency"],
 "data": [
  ["c1csc(SSc2cccs2)c1", "inactive"],
  ["CCCCCCCCN", "inactive"],
  ["Clc1cc(Cl)nc(Cl)n1", "inactive"],
  ["COc1cc(N)c(Cl)cc1C(=O)NC1CCN(CCCOc2ccc(F)cc2)CC1OC (stereo unspecified)", "11.4 µM (active)"],
  ["Cc1cccc(N(C)C(=S)Oc2ccc3c(c2)CCC3)c1", "inactive"],
  ["CCCCCCCCCCC(=O)O", "inactive"],
  ["O=c1cc(-c2ccccc2)oc2ccc3ccccc3c12", "9.69 µM (active)"],
  ["CCOC(=O)c1ccc(C#Cc2ccc3c(c2)C(C)(C)CCS3)nc1", "inactive"],
  ["COc1cc(Nc2c(C#N)cnc3cc(OCCCN4CCN(C)CC4)c(OC)cc23)c(Cl)cc1Cl", "9.44 µM (active)"],
  ["O=C1NC(=O)c2cc([N+](=O)[O-])ccc21", "inactive"],
  ["CC(C)C[C@H](NC(=O)[C@H](CCc1ccccc1)NC(=O)CN1CCOCC1)C(=O)N[C@@H](Cc1ccccc1)C(=O)N[C@@H](CC(C)C)C(=O)[C@@]1(C)CO1", "0.0298 µM (active)"],
  ["O=C(O)CCCCCCCCCCCBr", "inactive"],
  ["O=C(O)c1cccc(-c2noc(-c3ccccc3F)n2)c1", "10.6 µM (active)"],
  ["CC(C)=CCC/C(C)=C/CC/C(C)=C/CCC(=O)OC/C=C(\\C)CCC=C(C)C", "inactive"],
  ["CC(O)c1ccccc1 (stereo unspecified)", "inactive"],
  ["CN1C(=O)N(c2ccccc2Br)Cc2cnc(Nc3ccc4c(c3)OCC(CO)O4)nc21 (stereo unspecified)", "27.3 µM (active)"]
]}

Data origin: PubChem BioAssay (Tox21)
